system: Triticum aestivum (TRZAS); test: F. Post-emergence effect on useful plants, TRZAS; assay type: in vivo; settings: useful plant, application rate 320 g/ha
VALUE_TYPE: Post-emergence efficacy against TRZAS in % (%)

For orientation, consider the following solved cases.
* Cc1cccc(Oc2ncc(Cl)cn2)c1OS(=O)(=O)CC=C(Cl)Cl | 20
* Cc1cccc(OS(=O)(=O)CCCCl)c1Oc1ncc(Cl)cn1 | 0
* CCCCCS(=O)(=O)Oc1ccccc1Oc1ncc(Cl)cn1 | 0
* O=S(=O)(CCC(F)(F)F)Oc1c(Cl)cccc1Oc1ncc(Br)cn1 | 20

1. O=S(=O)(CCC(F)(F)F)Oc1c(Cl)cccc1Oc1ncc(Cl)cn1
2. C=CCCS(=O)(=O)Oc1c(F)cccc1Oc1ncc(Cl)cn1
Of 1 and 2 , which carries the smaller reported Post-emergence efficacy against TRZAS in % figure? // return label of chosen record
2
(2: 10%, 1: 20%)
